# System: U-251
# PROCEDURE_SUMMARY: NCI tumour cell line growth inhibition, 48 h
Calls of active or inactive are those of the source. Rule as the data show it: active = GI50 up to about 1.1 µM and inactive = higher.
Give one outcome, nothing more. List: 1 (active), -1 (inactive)

Examples from the recorded data:
| COMPOUND | CATEGORY |
| --- | --- |
| C=CC[N+]12CN3CN(CN(C3)C1)C2 | -1 |
| COC(=O)c1cc2c(s1)C(=O)c1ccccc1-2 | -1 |
| O=C(N/N=C1\C(=O)Nc2ccc(Br)cc21)/C(O)=C/C(=O)c1ccc(Cl)cc1 | -1 |
| CC(C)COC(=O)c1ccc(/N=C\c2ccc(/C=N/c3ccc(C(=O)OCC(C)C)cc3)cc2)cc1 | -1 |
| COc1ccc(OCC(C)(C)O)cc1 | -1 |

Query string: Assay result, entry CC1=C(C)C2(C#N)C(=O)N3C(=NC(c4ccco4)NC3c3ccco3)C2(C#N)C(c2ccco2)N1 (centres undefined) — outcome?
Result string: -1

Query string: Test call, this compound: COc1ccc(C2C3C(=O)C=CC(=O)C3[C@@H]2C)cc1OC (some centres undefined)
Result string: -1

Query string: // return assay outcome for COc1ccc(-c2csc3c2[N+]2(C)C=CC=C2C3N2CCCC2)cc1 (centres undefined)
Result string: -1

Query string: Which outcome did this test record for the compound COc1cc(C2c3cc4c(cc3OC(NNC(N)=O)C2C)OCO4)cc(OC)c1OC (centres undefined) ?
Result string: 1

Query string: Check the results log: what was the call for `CN(C)Cc1cc(Cl)c(O)c(CN(C)C)c1` ?
Result string: -1

Query string: Each compound tested received a call. Report the one for `C=C1[C@@H](OC(C)=O)[C@H]2[C@@H](OC(C)=O)[C@@](C)(OC(C)=O)C[C@]2(OC(C)=O)C(=O)[C@@H](C)/C=C/C(C)(C)C(=O)C[C@H]1OC(C)=O` .
Result string: -1

* * *

# Test system: OVCAR-5
# PROCEDURE_SUMMARY: NCI tumour cell line growth inhibition, 48 h
Active and inactive are the calls of the source. No stated cut-off is given here; in the data, active = GI50 up to about 1.1 µM and inactive = higher.
PARAMETER_MEASURED: GI50

| MOLECULE | READOUT_VALUE |
| --- | --- |
| CCCCCCCCCCCC[C@@H](O)[C@H]1CC[C@H]([C@H](O)CC[C@H](O)[C@@H]2CC[C@@H](CCCCCCCC3=C[C@H](C)OC3=O)O2)O1 | > 50 µM (inactive) |

Hi team, please reply with GI50 for each item in this list.
1. O=C(N/N=C1\C(=O)Nc2ccc(Br)cc21)/C(O)=C/C(=O)c1ccc(Cl)cc1
2. Oc1cc2c3c(c1)CCCN3CCC2
3. COC(=O)CSc1nnc(-c2ccccc2)[nH]1

Result string:
["97.5 µM (inactive)", "> 10 µM (inactive)", "> 100 µM (inactive)"]

* * *

# Test system: OVCAR-4
# PROCEDURE_SUMMARY: NCI tumour cell line growth inhibition, 48 h
Activity calls are given as the source filed them. Rule as the data show it: active = GI50 up to about 1.1 µM and inactive = higher.
PARAMETER_MEASURED: GI50

Example compounds with recorded GI50:
| COMPOUND | GI50 |
| --- | --- |
| CC(C)(C)c1ccc(C(O)c2ccc(C(C)(C)C)cc2)cc1 | 15.2 µM (inactive) |
| CN(C)Cc1cc(Cl)c(O)c(CN(C)C)c1 | > 100 µM (inactive) |
| COc1c2c(nc3ccccc13)-c1cc3c(c(=O)n1C2)COC(=O)C3(O)CC(=O)N1CCOCC1 (centres undefined) | 46.1 µM (inactive) |

// input: 3 compounds below; output: GI50 for each
1. CN1CCN(c2cc3[nH]c(-c4ccc(Cl)cc4)nc3cc2F)CC1
2. CC[C@H]1C=CCC[C@@]2(C[C@@H]3CC[C@@H]4[C@H](C(=O)OCCCCCCCCCCCCCCCC(=O)N(CCCN)CCCCN)[C@]5(CCC[C@@H](C)O5)NC(=[N+]34)N2)O1
3. Cc1ccc(/C=C2\NC(=S)N(CN3CCOCC3)C2=O)cc1

Result string:
22.8 µM (inactive)
1.34 µM (inactive)
> 100 µM (inactive)
